Assay: Hydrolysis of acylacronycinium salts in aqueous solution (no complexing agent)
Type: physicochemical
Conditions: phosphate buffer, phosphate buffer (25° C.); replicate runs; read-out: t1/2 (hydrolysis)
Counter-ions that a name gives are not always drawn.
propertyLabel: half-life (min)
Return type: number; implicit unit min.

Prompt: # return recorded half-life for entry COc1cc2c(c3c1c(OC(C)=O)c1ccccc1[n+]3C)C=CC(C)(C)O2 [Acetylacronycinium Sulfate]
Response: 19.3

* * *

Experiment: Hydrolysis of acylacronycinium salts in presence of complexing agents
Format: physicochemical
Conditions: water, pH 6, sodium gentisate 1 × 10^-2 M/l; 10^-4 M drug, water, 25° C., pH 6.0; read-out: Apparent half-life, t1/2
propertyLabel: half-life at 100 µM
I'd appreciate it if you wrote the number followed by its unit.

Prompt: # return recorded half-life at 100 µM for entry COc1cc2c(c3c1c(OC(C)=O)c1ccccc1[n+]3C)C=CC(C)(C)O2 [acetylacronycinium perchlorate, Acetylacronycinium Perchlorate]
Response: 125 min

* * *

Assay: Hydrolysis of acylacronycinium salts in aqueous solution (no complexing agent)
Assay type: physicochemical
Details: phosphate buffer, pH 7.6, phosphate buffer, pH 7.60, 25°C; read-out: t1/2 (hydrolysis)
propertyLabel: half-life (min)
Return type: number; implicit unit min.

Prompt: # return recorded half-life for entry CCC(=O)Oc1c2ccccc2[n+](C)c2c3c(cc(OC)c12)OC(C)(C)C=C3 [propionylacronycinium perchlorate, Propionylacronycinium Perchlorate]
Response: 14.9

* * *

Assay: Hydrolysis of acylacronycinium salts in presence of complexing agents
Type: physicochemical
Conditions: 0.05 m gentisic acid, pH 2.7, gentisic acid (0.05 M), pH 2.70, 25°C; read-out: t1/2 (hydrolysis)
propertyLabel: half-life (min)
Return type: number; implicit unit min.

Prompt: # return recorded half-life for entry CCC(=O)Oc1c2ccccc2[n+](C)c2c3c(cc(OC)c12)OC(C)(C)C=C3 [propionylacronycinium perchlorate, Propionylacronycinium Perchlorate]
Response: 103

* * *

Assay: Hydrolysis of acylacronycinium salts in presence of complexing agents
Assay type: physicochemical
Details: water, pH 6.5, model constant; sodium gentisate; μ = 1.0 M, 25.0°C, pH 6.5, 520 nm; read-out: t1/2 1:1 Complex
propertyLabel: half-life (h)
Return type: number; implicit unit h.

Prompt: # return recorded half-life for entry COc1cc2c(c3c1c(OC(C)=O)c1ccccc1[n+]3C)C=CC(C)(C)O2 [acetylacronycinium perchlorate, Acetylacronycinium Perchlorate]
Response: 1.98

* * *

Assay: Solubility
Format: physicochemical
Conditions: water, read-out: solubility in water
propertyLabel: solubility (µg/mL)
Return type: number; implicit unit µg/mL.

Prompt: # return recorded solubility for entry COc1cc2c(c3c1c(OC(C)=O)c1ccccc1[n+]3C)C=CC(C)(C)O2 [acetylacronycinium perchlorate, Acetylacronycinium Perchlorate]
Response: 250

* * *

Test: Hydrolysis of acylacronycinium salts in aqueous solution (no complexing agent)
Type: physicochemical
Conditions: acetate buffer, acetate buffer (25° C.); replicate runs; read-out: t1/2 (hydrolysis)
Where a name gives a salt, the structure may show the parent alone.
propertyLabel: half-life (min)
Return type: number; implicit unit min.

Prompt: # return recorded half-life for entry COc1cc2c(c3c1c(OC(C)=O)c1ccccc1[n+]3C)C=CC(C)(C)O2 [Acetylacronycinium Sulfate]
Response: 26.5

* * *

Assay: Hydrolysis of acylacronycinium salts in presence of complexing agents
Type: physicochemical
Conditions: water, pH 6, sodium gentisate 4 × 10^-2 M/l; 10^-4 M drug, water, 25° C., pH 6.0; read-out: Apparent half-life, t1/2
propertyLabel: half-life at 100 µM (h)
Return type: number; implicit unit h.

Prompt: # return recorded half-life at 100 µM for entry COc1cc2c(c3c1c(OC(C)=O)c1ccccc1[n+]3C)C=CC(C)(C)O2 [acetylacronycinium perchlorate, Acetylacronycinium Perchlorate]
Response: 3.45
